measuredQuantity: melting point

smilesStr: CCCn1ccn(CCn2ccn(CCC)c2=S)c1=S
melting point: 91 to 92 °C
--
smilesStr: Cn1ccn(-c2cccc(-n3ccn(C)c3=S)n2)c1=S
melting point: 270 to 273 °C
--
smilesStr: Cn1ccn(Cc2cccc(Cn3ccn(C)c3=S)n2)c1=S
melting point: 190 to 193 °C
--
smilesStr: CCn1ccn(CCn2ccn(CC)c2=S)c1=S
melting point: 131 to 133 °C
--
smilesStr: CCn1ccn(Cn2ccn(CC)c2=S)c1=S
melting point: 175 to 177 °C
--
smilesStr: Cn1ccn(CCn2ccn(C)c2=S)c1=S
melting point: 195 to 197 °C

Working through the 2 compounds below one at a time, give melting point for each.
1. CC(C)n1ccn(-c2cccc(-n3ccn(C(C)C)c3=S)n2)c1=S
2. Cn1ccn(Cn2ccn(C)c2=S)c1=S

a:
189 to 190 °C
194 to 197 °C

Where these numbers come from: paper PMC10935334
